# Target system: T1, S. pombe αWD40 Tyr139Ala mutant (S. pombe, UniProt Q96WV5 1-327, Tyr139Ala)
# T1 sequence: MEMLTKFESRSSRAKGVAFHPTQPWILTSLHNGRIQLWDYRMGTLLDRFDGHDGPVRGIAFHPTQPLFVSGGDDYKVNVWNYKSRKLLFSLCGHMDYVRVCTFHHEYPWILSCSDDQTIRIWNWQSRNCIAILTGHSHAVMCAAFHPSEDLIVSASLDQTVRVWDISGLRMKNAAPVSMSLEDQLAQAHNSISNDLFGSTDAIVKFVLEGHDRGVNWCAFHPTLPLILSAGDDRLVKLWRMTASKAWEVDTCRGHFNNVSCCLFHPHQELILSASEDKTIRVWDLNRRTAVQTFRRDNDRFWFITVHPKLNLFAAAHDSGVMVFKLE
# Method summary: BLI
pKd: −log10 of the molar value. No end group written: not given here.
Measured quantity: pKd

INSERT INTO measurements (binder, value) VALUES
  ('GVKLHYE (also: biotinylated) [clientized (Thr1273Glu) SARS-CoV-2 S tail heptapeptide (residues 1267-1273), biotinylated]', 5.42);
